Biological target: amylin receptor (rat)
Assay: amylin receptor binding assay
pIC50: −log10 of the molar value.

| Binder | pIC50 |
| --- | --- |
| DFMGWMDFGKRKCNTATCATQRLANELVRLQTYPRTNVGSNTY (modifications not checked) [CCK/Amylin-sCT hybrid DF(P-CH2SO3)… …] | 10.08 |

Source: patent EP2330125A2
